molecular target: furin, P09958; test: furin cleavage Z-score vs untreated control; higher = more cleavage, active = 3.5 or more, inactive = 1 or less, 8 variable residues between constant flanks; conditions: 7.5 min;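 also: purified furin at 1:10 enzyme:substrate in 50 mM HEPES pH 7.5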
Sequence (P09958 whole entry): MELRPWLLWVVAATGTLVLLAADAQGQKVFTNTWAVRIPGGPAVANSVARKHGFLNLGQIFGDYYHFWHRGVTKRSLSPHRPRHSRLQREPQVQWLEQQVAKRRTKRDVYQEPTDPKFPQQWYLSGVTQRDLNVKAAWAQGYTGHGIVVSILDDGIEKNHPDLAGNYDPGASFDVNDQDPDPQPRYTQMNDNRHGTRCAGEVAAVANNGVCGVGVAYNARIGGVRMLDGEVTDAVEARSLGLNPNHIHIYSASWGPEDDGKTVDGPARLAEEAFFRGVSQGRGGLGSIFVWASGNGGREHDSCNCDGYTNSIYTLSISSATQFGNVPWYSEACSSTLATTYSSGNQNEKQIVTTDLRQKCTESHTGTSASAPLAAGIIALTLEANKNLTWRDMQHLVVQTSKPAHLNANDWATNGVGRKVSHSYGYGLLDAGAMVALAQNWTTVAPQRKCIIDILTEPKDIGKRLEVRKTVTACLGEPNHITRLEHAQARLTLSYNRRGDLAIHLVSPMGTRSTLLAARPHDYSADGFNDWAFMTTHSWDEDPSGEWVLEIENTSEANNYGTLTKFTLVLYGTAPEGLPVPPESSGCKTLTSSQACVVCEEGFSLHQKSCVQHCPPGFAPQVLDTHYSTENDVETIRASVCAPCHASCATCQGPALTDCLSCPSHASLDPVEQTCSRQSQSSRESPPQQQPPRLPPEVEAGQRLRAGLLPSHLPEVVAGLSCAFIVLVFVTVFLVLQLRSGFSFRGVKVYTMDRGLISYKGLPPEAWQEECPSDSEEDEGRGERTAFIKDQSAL
Some of the results follow. The hit rate among all sequences tested is not known here.
Readings of furin cleavage Z-score for the listed sequences
I only need the number, thanks.

[ask] Name the reported furin cleavage Z-score value associated with the sequence CARLSRDSLQAGNASASA [FS-2998]
[reply] -0.269

[ask] What measured furin cleavage Z-score goes with CARKLRGETVAGNASASA [FS-2969] ?
[reply] -1.81

[ask] Using the record for CARKLRSLEQAGNASASA [FS-3193] , report its furin cleavage Z-score.
[reply] 8.09

[ask] Item under review: CARKLRDVLQAGNASASA [FS-2215] . Reported furin cleavage Z-score?
[reply] 2.04

[ask] Can you share its furin cleavage Z-score? I mean this sequence: CALPQDAVSRAGNASASA [HC899]
[reply] 0.79

[ask] For CARDRRRLEQAGNASASA [FS-2483] , what is its reported furin cleavage Z-score?
[reply] -1.86

[ask] What value of measured furin cleavage Z-score is listed for CALALLSCLTAGNASASA [HC250] ?
[reply] 0.23
